Assembled from different publications: IC50 for UniProt Q06124.

>>> value("Cc1nc(Sc2ccnc(N)c2Cl)cnc1N1CCC2(CC1)Cn1nccc1C2N (centres unmarked)")
"1.09 nM"
>>> value("C[C@@H]1OCC2(CCN(c3nc4cnn(-c5ccc6nnn(C)c6c5)c4nc3CO)CC2)[C@@H]1N")
"< 50 nM"
>>> value("C[C@@H]1OCC2(CCN(c3nc4cnn(-c5cccc6c5CCN6C)c4nc3CO)CC2)[C@@H]1N")
"< 50 nM"
>>> value("Nc1nc(N2CCC3(CC2)Cn2nncc2[C@H]3N)cnc1Sc1ccnc(N)c1Cl")
"≤ 50 nM"
>>> value("Nc1nccc(Sc2ncc(N3CCC4(CC3)Cn3nccc3[C@H]4N)n3cncc23)c1Cl")
"> 300 nM"

Would you mind giving IC50 for every compound in the list below?
1. Nc1nccc(Sc2cnc(N3CCC4(CC3)Cn3nncc3[C@H]4N)n3ccnc23)c1Cl
2. N[C@@H]1c2ccnn2CC12CCN(c1cnc(Sc3cccc(Cl)c3Cl)cn1)CC2
3. Nc1ccc(Sc2cnc(N3CCC4(CC3)Cn3nccc3[C@H]4N)cn2)c(Cl)n1

Ans:
1: ≤ 50 nM; 2: ≤ 50 nM; 3: ≤ 50 nM

###

pIC50: −log10 of the molar value.
Assembled from different publications: pIC50 for Tyrosine-protein phosphatase non-receptor type 11 (Homo sapiens).

Known pIC50 results, listed for orientation:
>>> value("Cc1cn2ccc(Sc3ncc(N4CCC5(CC4)Cn4nccc4[C@H]5N)nc3N)c(Cl)c2n1")
"≥ 7.30"
>>> value("CNc1nccc(Sc2nc(CO)c(N3CCC4(CC3)Cn3nccc3C4N)nc2C)c1Cl (centres unmarked)")
8.54
>>> value("Cc1nn2c(c1Cl)[C@@H](N)C1(CCN(c3cnc(Sc4ccnc(N)c4Cl)cn3)CC1)C2")
"≥ 7.30"
>>> value("Nc1nccc(Sc2cnc3[nH]c(N4CCC5(CC4)Cn4nccc4[C@H]5N)nc3n2)c1Cl")
"≥ 7.30"
>>> value("Nc1nc(N2CCC3(CC2)Cn2ncc(Cl)c2[C@H]3N)cnc1Sc1ccnc(N)c1Cl")
"≥ 7.30"
>>> value("Cc1cnn2c1[C@@H](N)C1(CCN(c3cnc(Sc4ccnc(N)c4Cl)cn3)CC1)C2")
"≥ 7.30"

Would you mind giving pIC50 for every molecule in the list below?
1. Cc1nc(N2CCC3(CC2)Cn2nccc2C3N)c(CO)nc1Sc1cccc(Cl)c1Cl (centres unmarked)
2. Nc1nccc(Sc2cnc(N3CCC4(CC3)Cn3nncc3[C@H]4N)cn2)c1Cl

Ans:
1: 8.64; 2: ≥ 7.30

Would you mind giving pIC50 for every molecule in the list below?
1. NC(=O)c1ccn(-c2nccc(Sc3cnc(N4CCC5(CC4)Cn4nccc4[C@H]5N)cn3)c2Cl)c1
2. N[C@@H]1c2ccnn2CC12CCN(c1cnc3nc(Sc4ccnc(-n5cccn5)c4Cl)ccc3n1)CC2
3. N[C@@H]1c2ccnn2CC12CCN(c1cnc(Sc3ccnc(-n4cccc4)c3Cl)cn1)CC2
4. CN(C)C(=O)c1cn2ccc(Sc3cnc(N4CCC5(CC4)Cn4nccc4[C@H]5N)cn3)c(Cl)c2n1

Ans:
["≥ 7.30", "≥ 7.30", "≥ 7.30", "≥ 7.30"]

Would you mind giving pIC50 for every molecule in the list below?
1. Cc1nc(N2CCC3(CC2)Cn2nccc2[C@H]3N)c(CO)nc1Sc1ccnc(N)c1Cl
2. CNC(=O)c1ccn(-c2nccc(Sc3cnc(N4CCC5(CC4)Cn4nccc4[C@H]5N)cn3)c2Cl)c1
3. C[C@@H]1OCC2(CCN(c3nc4cnn(-c5ccc6cnn(C)c6c5)c4nc3C(F)F)CC2)[C@@H]1N
4. C[C@@H]1OCC2(CCN(c3nc4cnn(-c5cccc6c5ccn6C)c4nc3CO)CC2)[C@@H]1N
5. Cc1nc(N2CCC3(CC2)Cn2nccc2C3N)c(C(N)=O)nc1Sc1ccnc(N)c1Cl (centres unmarked)
6. Nc1nccc(Sc2ccc(N3CCC4(CC3)Cn3nccc3[C@H]4N)nn2)c1Cl
7. N[C@@H]1c2ccnn2CC12CCN(c1cnc(Sc3ccn4c(Cl)cnc4c3Cl)cn1)CC2
8. N[C@@H]1c2ccnn2CC12CCN(c1ccc(Sc3cccc(Cl)c3Cl)nc1)CC2

Ans:
1: ≥ 7.30; 2: ≥ 7.30; 3: > 7.30; 4: > 7.30; 5: 8.49; 6: ≥ 7.30; 7: ≥ 7.30; 8: ≥ 7.30
